- System: radish (Raphanus sativus) sprouts
- assay.text: Phytotoxicity test on radish sprouts
- Format: in vivo
- experimental.context: 125 mg/L, radish, 5 days; UTC 3.09 g
assay.readout: Mass of 25 Sprouts

GET /values?readout=Mass of 25 Sprouts&item= O=C(O)c1ccccc1O
2.17 cd B g

GET /values?readout=Mass of 25 Sprouts&item= O=C(O)c1cc(Cl)cc(Cl)c1O
2.07 bcd B g

GET /values?readout=Mass of 25 Sprouts&item= O=C(O)c1cccc(Cl)c1O
1.64 a B g

GET /values?readout=Mass of 25 Sprouts&item= O=C(O)c1cc(Cl)ccc1O
1.94 abc B g

GET /values?readout=Mass of 25 Sprouts&item= O=C(O)c1ccncc1
2.19 cde B g

GET /values?readout=Mass of 25 Sprouts&item= C[N+](C)(C)CCCl.O=C([O-])c1cccnc1 [[CC][Nic]]
2.84 hi B g

GET /values?readout=Mass of 25 Sprouts&item= O=C(O)c1ccc(Cl)cc1O
1.65 a B g

GET /values?readout=Mass of 25 Sprouts&item= C[N+](C)(C)CCCl.O=C([O-])c1ccccc1O [[CC][Sal], chlormequat salicylate]
2.82 hi C g

---

- System: Tobamovirus tabaci (tobacco mosaic virus, TMV) on Nicotiana tabacum cv. Xanthi
- assay.text: SAR induction assay: necrotic area after TMV inoculation of sprayed tobacco
- Type: in vivo
- experimental.context: 250 mg/L, compared with untreated control plants
assay.readout: Reduction in Necrotic Area
Be sure to follow the number with its unit.

API: value(readout= Reduction in Necrotic Area, system= Tobamovirus tabaci (tobacco mosaic virus, TMV) on Nicotiana tabacum cv. Xanthi, query= C[N+](C)(C)CCCl.O=C([O-])c1ccc(Cl)cc1O [[CC][4-ClSal]] )
77.3%

API: value(readout= Reduction in Necrotic Area, system= Tobamovirus tabaci (tobacco mosaic virus, TMV) on Nicotiana tabacum cv. Xanthi, query= C[N+](C)(C)CCCl.O=C([O-])c1cc(Cl)cc(Cl)c1O [[CC][3,5-ClSal]] )
85.7%

API: value(readout= Reduction in Necrotic Area, system= Tobamovirus tabaci (tobacco mosaic virus, TMV) on Nicotiana tabacum cv. Xanthi, query= C[N+](C)(C)CCCl.O=C([O-])c1cccnc1 [[CC][Nic]] )
66.7%

API: value(readout= Reduction in Necrotic Area, system= Tobamovirus tabaci (tobacco mosaic virus, TMV) on Nicotiana tabacum cv. Xanthi, query= C[N+](C)(C)CCCl.O=C([O-])c1cc(Cl)nc(Cl)c1 [[CC][Ina]] )
63.8%

API: value(readout= Reduction in Necrotic Area, system= Tobamovirus tabaci (tobacco mosaic virus, TMV) on Nicotiana tabacum cv. Xanthi, query= C[N+](C)(C)CCCl.O=C([O-])c1cc(Cl)ccc1O [[CC][5-ClSal]] )
95.4%

API: value(readout= Reduction in Necrotic Area, system= Tobamovirus tabaci (tobacco mosaic virus, TMV) on Nicotiana tabacum cv. Xanthi, query= C[N+](C)(C)CCCl.O=C([O-])c1cccc(Cl)c1O [[CC][3-ClSal]] )
96.0%

API: value(readout= Reduction in Necrotic Area, system= Tobamovirus tabaci (tobacco mosaic virus, TMV) on Nicotiana tabacum cv. Xanthi, query= C[N+](C)(C)CCCl.O=C([O-])c1ccncc1 [[CC][IsoNic]] )
37.8%

---

- Test system: radish (Raphanus sativus) sprouts
- assay.text: Phytotoxicity test on radish sprouts
- Type: in vivo
- experimental.context: 250 mg/L, compared with untreated control
Would you kindly list Reduction in Sprout Mass for each of these compounds?
Lab book: enter the figure in %, no units written.

GET /values?readout=Reduction in Sprout Mass&item= O=C(O)c1ccccc1O
63.27

GET /values?readout=Reduction in Sprout Mass&item= C[N+](C)(C)CCCl.O=C([O-])c1ccncc1 [[CC][IsoNic]]
35.65

GET /values?readout=Reduction in Sprout Mass&item= C[N+](C)(C)CCCl.O=C([O-])c1cccc(Cl)c1O [[CC][3-ClSal]]
36.68

GET /values?readout=Reduction in Sprout Mass&item= O=C(O)c1cc(Cl)nc(Cl)c1
54.31

GET /values?readout=Reduction in Sprout Mass&item= C[N+](C)(C)CCCl.O=C([O-])c1ccc(Cl)cc1O [[CC][4-ClSal]]
19.63

GET /values?readout=Reduction in Sprout Mass&item= O=C(O)c1cc(Cl)cc(Cl)c1O
59.49

GET /values?readout=Reduction in Sprout Mass&item= C[N+](C)(C)CCCl.O=C([O-])c1ccccc1O [[CC][Sal], chlormequat salicylate]
26.91

GET /values?readout=Reduction in Sprout Mass&item= C[N+](C)(C)CCCl.O=C([O-])c1cc(Cl)cc(Cl)c1O [[CC][3,5-ClSal]]
37.38

GET /values?readout=Reduction in Sprout Mass&item= O=C(O)c1ccncc1
42.83

GET /values?readout=Reduction in Sprout Mass&item= C[N+](C)(C)CCCl.O=C([O-])c1cccnc1 [[CC][Nic]]
26.16
